- targetDesc: KRAS G12D (Homo sapiens (Human), UniProt P01116+P62937, G12D)
- Sequence (P01116-2 other isoform, or with tags, fused parts or gaps G12D): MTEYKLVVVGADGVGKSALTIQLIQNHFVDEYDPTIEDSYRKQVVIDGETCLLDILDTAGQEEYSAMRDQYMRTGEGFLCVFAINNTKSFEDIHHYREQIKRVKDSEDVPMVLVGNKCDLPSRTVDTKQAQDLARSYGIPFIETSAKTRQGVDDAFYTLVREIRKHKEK
- Sequence (P62937 whole entry): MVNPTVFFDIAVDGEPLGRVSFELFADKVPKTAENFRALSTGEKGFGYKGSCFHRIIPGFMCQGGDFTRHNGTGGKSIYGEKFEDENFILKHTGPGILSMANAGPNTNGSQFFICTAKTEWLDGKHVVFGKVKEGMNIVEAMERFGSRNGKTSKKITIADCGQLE
- methodNotes: Ras-Raf (BRAF RBD) disruption / FRET / MOA assay, KRAS G12D
- Assay type: biochemical
- particulars: Ras-Raf disruption/FRET/MOA assay; class symbols; read-out: KRAS G12D FRET data IC50
Quick list: IC50 per entry.
propertyName: IC50

molecule	propertyName	reported
C=CC(=O)N1CC[C@H](C(=O)N(C)[C@H](C(=O)N[C@H]2Cc3cc(O)cc(c3)-c3ccc4c(c3)c(c(-c3cc(N5CC(OC)C5)ccn3)n4CC)CC(C)(C)COC(=O)[C@@H]3CCCN(N3)C2=O)C(C)C)C1	IC50	> 10 µM
C=CC(=O)N(C)C[C@@H]1CCN1C(=O)N(C)[C@H](C(=O)N[C@H]1Cc2nc(cs2)-c2ccc3c(c2)c(c(-c2cccnc2[C@H](C)OC)n3CC)CC(C)(C)COC(=O)[C@@H]2CCCN(N2)C1=O)C(C)C (atropisomer, axis not shown)	IC50	1 to 10 µM
CCn1c(-c2cccnc2[C@H](C)OC)c2c3cc(ccc31)N1CCO[C@@](C)(C[C@H](NC(=O)[C@H](C(C)C)N(C)C(=O)C3(F)CCN(C(=O)C#CC(C)(C)N(C)C)CC3)C(=O)N3CCC[C@H](N3)C(=O)OCC(C)(C)C2)C1	IC50	1 to 10 µM
C=CC(=O)N1CC[C@H](C(=O)N(C)[C@H](C(=O)N[C@H]2Cc3cccc(c3)-c3ccc4c(c3)c(c(-c3cc(CN(C)C)cnc3[C@H](C)OC)n4CC)CC(C)(C)COC(=O)[C@@H]3CCCN(N3)C2=O)C(C)C)C1 [Example A523]	IC50	> 10 µM
C=CC(=O)N1CC[C@H](C(=O)N(C)[C@H](C(=O)N[C@H]2Cc3cc(O)cc(c3)-c3ccc4c(c3)c(c(-c3ccc(CN(C)C)cc3COC)n4CC)CC(C)(C)COC(=O)[C@@H]3CCCN(N3)C2=O)C(C)C)C1	IC50	1 to 10 µM
C=CC(=O)N1CC[C@H](C(=O)N(C)[C@H](C(=O)N[C@H]2Cc3cc(O)cc(c3)-c3ccc4c(c3)c(c(-c3cccnc3[C@@H]3CCCO3)n4CC)CC(C)(C)COC(=O)[C@@H]3CCCN(N3)C2=O)C(C)C)C1 (atropisomer, axis not shown)	IC50	1 to 10 µM
CC#CC(=O)N1CC[C@]2(CCN([C@H](C(=O)N[C@H]3Cc4nc(cs4)-c4ccc5c(c4)c(c(-c4cccnc4[C@H](C)OC)n5CC)CC(C)(C)COC(=O)[C@@H]4CCCN(N4)C3=O)C(C)C)C2=O)C1 (atropisomer, axis not shown)	IC50	> 10 µM
CO[C@@H](C)c1ncccc1-c1c2c3cc(ccc3n1CC(F)(F)F)-c1csc(n1)C[C@H](NC(=O)[C@H](C(C)C)N(C)C(=O)N1C[C@@H]3OCCN(C(=O)/C=C/CF)[C@@H]3C1)C(=O)N1CCC[C@H](N1)C(=O)OCC(C)(C)C2 (atropisomer, axis not shown)	IC50	1 to 10 µM

* * *

- targetDesc: KRAS G12V (Homo sapiens (Human), UniProt P01116+P62937, G12V)
- Sequence (P01116-2 other isoform, or with tags, fused parts or gaps G12V): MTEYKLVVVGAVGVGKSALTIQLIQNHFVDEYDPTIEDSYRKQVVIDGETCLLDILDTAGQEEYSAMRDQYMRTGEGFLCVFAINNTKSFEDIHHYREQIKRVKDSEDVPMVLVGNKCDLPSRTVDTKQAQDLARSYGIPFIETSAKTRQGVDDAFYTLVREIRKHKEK
- Sequence (P62937 whole entry): as the sequence (P62937 whole entry) above
- methodNotes: Ras-Raf (BRAF RBD) disruption / FRET / MOA assay, KRAS G12V
- Type: biochemical
- particulars: read-out: IC50* KRAS G12V FRET data
pIC50: −log10 of the molar value.
Quick list: pIC50 per entry.
propertyName: pIC50

molecule	targetDesc	propertyName	reported
CCn1c(-c2cccnc2[C@H](C)OC)c2c3cc(ccc31)-c1cc(O)cc(c1)C[C@H](NC(=O)[C@H](C(C)C)N(C)C(=O)c1ccc(NC(=O)/C=C/CN(C)C)nc1)C(=O)N1CCC[C@H](N1)C(=O)OCC(C)(C)C2 (atropisomer, axis not shown) [Example A249]	KRAS G12V (Homo sapiens (Human), UniProt P01116+P62937, G12V)	pIC50	5.00 to 6.00
C=CC(=O)N1CC2(COCCN2C(=O)N(C)[C@H](C(=O)N[C@H]2Cc3nc(cs3)-c3ccc4c(c3)c(c(-c3cccnc3[C@H](C)OC)n4CC)CC(C)(C)COC(=O)[C@@H]3CCCN(N3)C2=O)C(C)C)C1 (atropisomer, axis not shown) [Example A352]	KRAS G12V (Homo sapiens (Human), UniProt P01116+P62937, G12V)	pIC50	< 5.00
C=CC(=O)N1CC[C@H](C(=O)N(C)[C@H](C(=O)N[C@H]2Cc3cccc(c3)-c3ccc4c(c3)c(c(-c3cccnc3[C@H](C)OC)n4CC)CC(C)(C)COC(=O)[C@@H]3CCCN(N3)C2=O)C2COC2)C1 (atropisomer, axis not shown) [Example A469]	KRAS G12V (Homo sapiens (Human), UniProt P01116+P62937, G12V)	pIC50	5.00 to 6.00
C=CC(=O)N1CC(OC[C@H](C(=O)N[C@H]2C[C@H]3CN(CCO3)c3ccc4c(c3)c(c(-c3cccnc3[C@H](C)OC)n4CC(F)(F)F)CC(C)(C)COC(=O)[C@@H]3CCCN(N3)C2=O)C(C)C)C1 (atropisomer, axis not shown) [Example A723]	KRAS G12V (Homo sapiens (Human), UniProt P01116+P62937, G12V)	pIC50	5.00 to 6.00
